These entries and their values trace back to ChEMBL document CHEMBL4715747.

biological target: Aminopeptidase N (Sus scrofa, UniProt P15145)
Sequence (P15145 whole entry): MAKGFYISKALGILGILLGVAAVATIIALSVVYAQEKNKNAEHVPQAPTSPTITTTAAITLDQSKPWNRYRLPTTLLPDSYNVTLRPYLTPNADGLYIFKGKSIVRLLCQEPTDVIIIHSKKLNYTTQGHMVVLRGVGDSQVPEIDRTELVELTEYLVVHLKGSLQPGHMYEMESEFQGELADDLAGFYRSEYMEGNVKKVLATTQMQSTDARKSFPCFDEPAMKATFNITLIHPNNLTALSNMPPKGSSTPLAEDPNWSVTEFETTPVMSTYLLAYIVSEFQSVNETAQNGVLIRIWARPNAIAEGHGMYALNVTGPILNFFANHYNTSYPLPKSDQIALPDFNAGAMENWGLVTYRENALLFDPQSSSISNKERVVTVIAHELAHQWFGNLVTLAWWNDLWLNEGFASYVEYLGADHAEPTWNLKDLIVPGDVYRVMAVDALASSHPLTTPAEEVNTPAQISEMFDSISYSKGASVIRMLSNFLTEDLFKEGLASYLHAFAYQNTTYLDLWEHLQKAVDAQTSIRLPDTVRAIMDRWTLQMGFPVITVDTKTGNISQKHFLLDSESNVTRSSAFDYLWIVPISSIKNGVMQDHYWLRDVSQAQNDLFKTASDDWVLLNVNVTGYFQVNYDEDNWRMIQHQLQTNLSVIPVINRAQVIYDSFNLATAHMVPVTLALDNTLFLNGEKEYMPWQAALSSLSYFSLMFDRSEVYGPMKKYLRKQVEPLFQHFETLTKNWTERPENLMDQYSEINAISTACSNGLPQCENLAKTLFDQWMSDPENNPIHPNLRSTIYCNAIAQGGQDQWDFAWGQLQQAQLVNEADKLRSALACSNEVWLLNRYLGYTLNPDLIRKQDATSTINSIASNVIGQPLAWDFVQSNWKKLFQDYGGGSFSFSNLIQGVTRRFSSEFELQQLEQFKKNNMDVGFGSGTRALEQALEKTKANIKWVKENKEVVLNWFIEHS
ENDPOINT_NAME: pIC50
Give bare numbers, as −log10 of the molar value.

Ask: Recorded pIC50 for `CC(C)C[C@H](NC(=O)[C@@H](O)[C@H](N)Cc1ccccc1)C(=O)OCn1cc(F)c(=O)[nH]c1=O.Cl` with Aminopeptidase N (Sus scrofa, UniProt P15145), please?
Result: 5.16

* * *

test system: A549; assay: Antiproliferative activity against human A549 cells after 48 hrs by MTT assay; details: A549, 48 h
ENDPOINT_NAME: IC50

Ask: I am curious: what IC50 value has been reported for `CC(C)C[C@H](NC(=O)[C@@H](O)[C@H](N)Cc1ccccc1)C(=O)OCn1cc(F)c(=O)[nH]c1=O.Cl` ?
Result: 5.68 µM

* * *

assay: Antiproliferative activity against human 3AO cells after 48 hrs by MTT assay
Give measured pIC50 for each item. Keep answers brief.
One number for each entry, as −log10 of the molar value.

INSERT INTO measurements (molecule, value_observed) VALUES
  ('CC(C)C[C@H](NC(=O)[C@@H](O)[C@H](N)Cc1ccccc1)C(=O)OCn1cc(F)c(=O)[nH]c1=O.Cl', 4.59);

Next molecule, please.
Ask: I am curious: what pIC50 value has been reported for O=c1[nH]cc(F)c(=O)[nH]1 [FLUOROURACIL] ?
Result: 4.22
